# experimental-target: SRC (Homo sapiens)
# Sequence (P12931 whole entry): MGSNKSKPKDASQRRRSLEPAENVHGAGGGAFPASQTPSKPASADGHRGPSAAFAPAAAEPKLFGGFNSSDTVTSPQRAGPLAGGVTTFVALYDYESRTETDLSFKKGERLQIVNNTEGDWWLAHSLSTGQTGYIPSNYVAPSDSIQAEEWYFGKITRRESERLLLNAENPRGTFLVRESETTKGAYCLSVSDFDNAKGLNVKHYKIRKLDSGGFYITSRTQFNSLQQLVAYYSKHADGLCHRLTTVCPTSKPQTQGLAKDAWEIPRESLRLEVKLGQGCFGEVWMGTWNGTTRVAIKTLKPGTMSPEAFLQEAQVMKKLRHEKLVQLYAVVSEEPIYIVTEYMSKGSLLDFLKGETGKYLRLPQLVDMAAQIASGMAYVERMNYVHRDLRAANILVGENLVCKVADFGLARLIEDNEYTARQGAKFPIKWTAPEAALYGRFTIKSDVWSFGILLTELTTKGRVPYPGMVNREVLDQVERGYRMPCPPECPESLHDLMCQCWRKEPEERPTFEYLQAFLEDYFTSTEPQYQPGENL
# procedure-summary: Inhibition of a panel of kinases, in vitro HotSpot kinase assay: SRC
# Assay type: biochemical
# cond: D-compounds panel data; 1 μM ATP
endpoint-name: IC50

Requested read-out: IC50. Entry: Cn1cc(Nc2nc(N3CCC[C@@H]4[C@H]3CCN4C(=O)c3ccccc3)cnc2C(N)=O)cn1 (racemic) 100 to 1000 nM

C[C@@H]1[C@H](NC(=O)c2ccc(N(C)CCO)cc2)CCCN1c1cnc(C(N)=O)c(Nc2cnn(C)c2)n1 , same question. 10 to 100 nM

CN1CCN(Cc2ccc(Nc3nc(N4CCC[C@@H](n5ccc6cc(C7CC7)ccc6c5=O)C4)cnc3C(N)=O)cc2)CC1 , same question. 100 to 1000 nM

C[C@@H]1[C@H](NC(=O)c2cc(C(C)(C)C)n[nH]2)CCCN1c1cnc(C(N)=O)c(Nc2cnn(C)c2)n1 , same question. 10 to 100 nM

C[C@@H]1[C@H](NC(=O)N(C)C)CCCN1c1cnc(C(N)=O)c(Nc2cc(CN3CCOCC3)ns2)n1 , same question. 100 to 1000 nM

C[C@H]1CC[C@@H](NC(=O)c2ccc(C(C)(C)O)cc2)CN1c1cnc(C(N)=O)c(Nc2cnn(C)c2)n1 , same question. 10 to 100 nM

C[C@@H]1[C@H](NC(=O)c2cc(C3CC3)n[nH]2)CCCN1c1cnc(C(N)=O)c(Nc2cnn(C)c2)n1 , same question. 10 to 100 nM

C[C@@H]1[C@H](NC(=O)c2cc(C3CC3)n(C)n2)CCCN1c1cnc(C(N)=O)c(Nc2cnn(C)c2)n1 , same question. 10 to 100 nM

Cn1cc(Nc2nc(N3CC(NC(=O)c4ccc(C5CC5)cc4)CC(F)(F)C3)cnc2C(N)=O)cn1 (stereo in doubt) , same question. 100 to 1000 nM

C[C@@H]1[C@H](NC(=O)c2ccc(C(N)=O)cc2)CCCN1c1cnc(C(N)=O)c(Nc2cnn(C)c2)n1 , same question. 10 to 100 nM

C[C@@H]1CC[C@H](NC(=O)c2ccc(C3CC3)cc2)CN1c1cnc(C(N)=O)c(Nc2ccc(N3CCN(C)CC3)cc2)n1 , same question. 10 to 100 nM

C[C@@H]1CC[C@@H](NC(=O)c2ccc(C3CC3)cc2)CN1c1cnc(C(N)=O)c(Nc2cnn(C)c2)n1 , same question. 1000 to 10000 nM

C[C@@H]1[C@H](NC(=O)c2ccc3c(cnn3C)c2)CCCN1c1cnc(C(N)=O)c(Nc2ccc(N3CCN(C)CC3)cc2)n1 , same question. 10 to 100 nM

* * *

# experimental-target: BTK-WT (Homo sapiens)
# Construct: purified from insect cells as a full-length construct containing an N-terminal 6X-His tag; His6 (N); made in house; host or cells: insect cells (baculovirus Sf21 in Method B)
# Sequence (Q06187 whole entry): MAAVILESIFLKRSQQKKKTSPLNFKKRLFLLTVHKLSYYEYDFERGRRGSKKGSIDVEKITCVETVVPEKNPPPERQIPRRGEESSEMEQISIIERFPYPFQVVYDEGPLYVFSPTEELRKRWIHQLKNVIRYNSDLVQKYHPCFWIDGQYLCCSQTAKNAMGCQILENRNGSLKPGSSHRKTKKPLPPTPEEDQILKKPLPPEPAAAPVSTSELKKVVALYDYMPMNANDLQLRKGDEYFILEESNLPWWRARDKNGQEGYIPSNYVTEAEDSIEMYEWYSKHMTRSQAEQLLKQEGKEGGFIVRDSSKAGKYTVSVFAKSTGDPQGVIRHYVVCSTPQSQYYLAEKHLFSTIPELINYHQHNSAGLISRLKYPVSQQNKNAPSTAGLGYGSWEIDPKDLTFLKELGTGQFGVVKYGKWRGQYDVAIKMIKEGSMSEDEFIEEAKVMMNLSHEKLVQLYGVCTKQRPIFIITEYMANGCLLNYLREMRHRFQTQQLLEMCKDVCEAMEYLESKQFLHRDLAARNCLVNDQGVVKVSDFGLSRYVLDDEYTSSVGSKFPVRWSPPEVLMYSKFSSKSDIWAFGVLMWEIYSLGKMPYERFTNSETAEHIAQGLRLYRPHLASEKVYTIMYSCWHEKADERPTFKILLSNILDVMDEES
# procedure-summary: Btk in vitro inhibitory activity (one of Method A TR-FRET, Method B electrophoretic mobility shift, Method C radiometric filter binding)
# Assay type: biochemical
# cond: D-compounds panel data; read-out: IC50 BTK-WT
endpoint-name: IC50

Look up IC50 with BTK-WT (Homo sapiens) for this compound: C[C@@H]1[C@H](NC(=O)c2ccc(C3CC3)cc2)CCCN1c1cnc(C(N)=O)c(Nc2cnn(C3CC3)c2)n1 ≤ 10 nM

C[C@@H]1[C@H](NC(=O)c2ccc3scnc3c2)CCCN1c1cnc(C(N)=O)c(Nc2ccc(N3CCN(C)CC3)cc2)n1 , same question. ≤ 10 nM

C[C@@H]1[C@H](NC(=O)N(C)C)CCCN1c1cnc(C(N)=O)c(Nc2cn[nH]c2)n1 , same question. 10 to 100 nM

C[C@H]1CC[C@@H](NC(=O)c2ccc(C(C)(C)O)cc2)CN1c1cnc(C(N)=O)c(Nc2cnn(C)c2)n1 , same question. ≤ 10 nM

C[C@@H]1[C@H](NC(=O)c2ccc(C3CC3)cc2F)CCCN1c1cnc(C(N)=O)c(Nc2cc(CN3CCCCC3)ns2)n1 , same question. ≤ 10 nM

Cn1cc(Nc2nc(N3CCC[C@@H]4[C@H]3CCN4C(=O)c3ccc(C4CC4)cc3)cnc2C(N)=O)cn1 , same question. 10 to 100 nM

CC(C)N1CCN(c2ccc(Nc3nc(N4CCC[C@@H](NC(=O)c5ccc(C6CC6)cc5F)[C@H]4C)cnc3C(N)=O)cc2)CC1 , same question. ≤ 10 nM

C[C@@H]1[C@H](NC(=O)c2ccc(C3CC3)cc2)CCCN1c1cnc(C(N)=O)c(Nc2ccc3nccn3c2)n1 , same question. 10 to 100 nM

C[C@@H]1[C@H](NC(=O)c2cc3n(n2)CCC3)CCCN1c1cnc(C(N)=O)c(Nc2cnn(C)c2)n1 , same question. ≤ 10 nM

C[C@@H]1[C@H](NC(=O)c2ccc(C3CC3)cn2)CCCN1c1cnc(C(N)=O)c(Nc2ccc(OC3CCN(C)CC3)cc2)n1 , same question. ≤ 10 nM

C[C@@H]1CC[C@H](NC(=O)c2ccc(C3CC3)cc2)CN1c1cnc(C(N)=O)c(Nc2cnn(C)c2)n1 , same question. 10 to 100 nM

CN1CCN(c2ccc(Nc3cc(N4CCC[C@@H](n5ccc6cc(C7CC7)ccc6c5=O)C4)cnc3C(N)=O)cc2)CC1 , same question. 10 to 100 nM

Cc1ccc(-c2cnc([C@H]3CCCN(c4cnc(C(N)=O)c(Nc5cc(C)ns5)n4)C3)[nH]2)cc1 , same question. 10 to 100 nM

Cc1cc(Nc2nc(N3CCC[C@@H](NC(=O)N(C)C)[C@H]3CO)cnc2C(N)=O)sn1 , same question. 10 to 100 nM

* * *

# experimental-target: JAK3 (Homo sapiens, UniProt P52333)
# Sequence (P52333 whole entry): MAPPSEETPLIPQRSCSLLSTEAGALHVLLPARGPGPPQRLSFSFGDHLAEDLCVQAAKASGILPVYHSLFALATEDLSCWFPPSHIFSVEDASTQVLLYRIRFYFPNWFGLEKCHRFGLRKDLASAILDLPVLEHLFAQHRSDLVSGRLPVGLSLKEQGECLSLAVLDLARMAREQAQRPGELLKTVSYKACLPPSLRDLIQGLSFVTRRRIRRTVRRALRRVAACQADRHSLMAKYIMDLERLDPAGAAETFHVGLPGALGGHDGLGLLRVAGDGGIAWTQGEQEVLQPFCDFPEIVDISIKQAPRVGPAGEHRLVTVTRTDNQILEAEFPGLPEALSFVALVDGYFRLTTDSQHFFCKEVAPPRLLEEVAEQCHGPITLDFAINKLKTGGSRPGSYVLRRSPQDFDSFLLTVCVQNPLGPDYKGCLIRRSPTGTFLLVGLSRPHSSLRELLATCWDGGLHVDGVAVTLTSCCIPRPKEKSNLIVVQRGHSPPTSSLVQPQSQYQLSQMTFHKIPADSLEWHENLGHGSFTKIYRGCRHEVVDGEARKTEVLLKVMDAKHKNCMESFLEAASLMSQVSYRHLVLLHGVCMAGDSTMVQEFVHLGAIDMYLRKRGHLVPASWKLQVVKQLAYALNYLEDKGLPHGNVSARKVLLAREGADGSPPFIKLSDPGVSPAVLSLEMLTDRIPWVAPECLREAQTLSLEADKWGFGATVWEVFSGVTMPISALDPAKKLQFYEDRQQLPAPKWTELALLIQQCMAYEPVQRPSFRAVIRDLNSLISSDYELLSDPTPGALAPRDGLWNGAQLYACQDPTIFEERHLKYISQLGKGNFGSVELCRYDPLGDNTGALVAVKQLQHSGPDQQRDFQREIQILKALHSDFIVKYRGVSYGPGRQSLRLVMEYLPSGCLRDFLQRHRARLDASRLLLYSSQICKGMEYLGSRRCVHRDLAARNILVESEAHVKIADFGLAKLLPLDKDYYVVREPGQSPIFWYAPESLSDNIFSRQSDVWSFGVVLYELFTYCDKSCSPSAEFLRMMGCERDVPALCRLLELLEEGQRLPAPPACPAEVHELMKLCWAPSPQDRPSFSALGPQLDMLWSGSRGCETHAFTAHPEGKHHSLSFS
# procedure-summary: Inhibition of a panel of kinases, in vitro HotSpot kinase assay: JAK3
# Type: biochemical
# cond: E compounds, Table 17; read-out: IC50 JAK3
Assign IC50 to each entry below.

Requested read-out: IC50. Entry: C=CC(=O)N1CCC[C@@H](Nc2nnc(C(N)=O)c(Nc3ccc(C(C)(C)C)cc3)n2)C1 < 0.01 µM

C[C@@H]1CCN(c2cnc(C(N)=O)c(Nc3cnn(C)c3)n2)C[C@@H]1NC(=O)c1ccc(C2CC2)cc1 , same question. > 10 µM

CCC(O)(CC)c1ccc(C(=O)N[C@@H]2CCCN(c3cnc(C(N)=O)c(Nc4cnn(C)c4)n3)[C@@H]2C)cc1 , same question. 0.1 to 1 µM

CC(C)c1ccc(Nc2nc(N3CCC[C@@H](N4CCC[C@@H](Nc5cc(Cl)cc(C(F)(F)F)c5)C4=O)C3)nnc2C(N)=O)cc1 , same question. 1 to 10 µM

C=CC(=O)N1CC[C@@H](N(C)c2cnc(C(N)=O)c(Nc3ccc(C4(C)CCN(C5CC5)CC4)cc3)n2)C1 , same question. < 0.01 µM

Cn1cc(Nc2nc(N3CCC4CCN(C(=O)c5ccc(C6CC6)cc5)C4C3)cnc2C(N)=O)cn1 (stereo not shown) , same question. 1 to 10 µM

Cc1cc(C(=O)N[C@@H]2CCCN(c3cnc(C(N)=O)c(Nc4cnn(C)c4)n3)[C@@H]2C)ccc1C(C)(C)O , same question. 0.1 to 1 µM

* * *

# experimental-target: ITK (Homo sapiens, UniProt Q08881)
# Sequence (Q08881 1-620): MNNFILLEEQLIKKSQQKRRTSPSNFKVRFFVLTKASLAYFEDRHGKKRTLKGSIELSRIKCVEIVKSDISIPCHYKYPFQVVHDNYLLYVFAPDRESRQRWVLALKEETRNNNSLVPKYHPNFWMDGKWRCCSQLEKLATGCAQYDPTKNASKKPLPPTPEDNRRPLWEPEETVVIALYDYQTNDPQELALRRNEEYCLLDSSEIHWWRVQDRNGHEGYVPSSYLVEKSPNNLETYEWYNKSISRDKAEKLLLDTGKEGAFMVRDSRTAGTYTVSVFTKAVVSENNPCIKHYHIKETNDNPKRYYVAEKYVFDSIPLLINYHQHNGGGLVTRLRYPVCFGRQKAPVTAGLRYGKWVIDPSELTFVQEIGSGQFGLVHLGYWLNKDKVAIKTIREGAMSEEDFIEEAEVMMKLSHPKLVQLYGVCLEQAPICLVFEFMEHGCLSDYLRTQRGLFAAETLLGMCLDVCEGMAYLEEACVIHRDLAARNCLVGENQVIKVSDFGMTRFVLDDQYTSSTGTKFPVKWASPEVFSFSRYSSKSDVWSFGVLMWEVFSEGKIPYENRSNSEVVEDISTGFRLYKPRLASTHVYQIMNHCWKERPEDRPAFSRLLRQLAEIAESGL
# procedure-summary: Inhibition of a panel of kinases, in vitro HotSpot kinase assay: ITK
# Format: biochemical
# cond: E compounds, Table 17
pIC50: −log10 of the molar value.
endpoint-name: pIC50

Look up pIC50 with ITK (Homo sapiens, UniProt Q08881) for this compound: C=CC(=O)N[C@H]1CCCC[C@H]1Nc1nnc(C(N)=O)c(Nc2ccc(C(C)C)cc2)n1 6.00 to 7.00

C=CC(=O)N1CCC[C@@H](Nc2nnc(C(N)=O)c(Nc3cccc(C(=O)NC4CC4)c3)n2)C1 , same question. 7.00 to 8.00

C=CC(=O)N1CCC[C@@H](Nc2nnc(C(N)=O)c(Nc3ccc(-c4nccs4)cc3)n2)C1 , same question. 7.00 to 8.00

C=CC(=O)N1CCC(C)(c2ccc(Nc3nc(N[C@@H]4CCCN(C(=O)C=C)C4)nnc3C(N)=O)cc2)CC1 , same question. ≥ 8.00

C[C@@H]1CCN(c2cnc(C(N)=O)c(Nc3cnn(C)c3)n2)C[C@@H]1NC(=O)c1ccc(C2CC2)cc1 , same question. < 5.00

C[C@@H]1[C@H](NC(=O)c2ccc(C(C)(C)N3CCCC3)cc2)CCCN1c1cnc(C(N)=O)c(Nc2cnn(C)c2)n1 , same question. 6.00 to 7.00

CCC(=O)N1CCC[C@@H](Nc2nnc(C(N)=O)c(Nc3ccc(C(C)(C)C)cc3)n2)C1 , same question. 6.00 to 7.00
